- Test system: LARP1 DM15 Y922 mutant (Homo sapiens), Q6PKG0-3
- methodNotes: EMSA
- assayContext: 5' m7Gppp cap; Competition assays: 20 mM Tris pH 8, 150 mM NaCl, 10% glycerol, 1 mM DTT, 0.5 ug BSA, 0.5 ug tRNA, 30 min on ice, native gel; EMSA as in Lahr et al. 2015 with …
measuredProperty: Kd (nM)
Give bare numbers, in nM.

// query LARP1 DM15 Y922 mutant (Homo sapiens), Q6PKG0-3 / Kd / CCUCUUUUCCGUGGCGCCUCGGAGGCGUUCAGCUGCUUCAAG [m7Gppp-RPS6 42mer (capped TOP)] : value?
// result 2600

---

- Tested on: LARP1 DM15 E886 mutant (Homo sapiens), Q6PKG0-3
- methodNotes: EMSA
- assayContext: 5' m7Gppp cap; Competition assays: 20 mM Tris pH 8, 150 mM NaCl, 10% glycerol, 1 mM DTT, 0.5 ug BSA, 0.5 ug tRNA, 30 min on ice, native gel; EMSA as in Lahr et al. 2015 with …
measuredProperty: pKd
Answers are plain numbers, as −log10 of the molar value.

// query Param item = CCUCUUUUCCGUGGCGCCUCGGAGGCGUUCAGCUGCUUCAAG [m7Gppp-RPS6 42mer (capped TOP)] ; retrieve measured pKd.
// result 5.10
